- System: cyclooxygenase-2 (Mus musculus)
- Construct: Peritoneal fluid suspended with macrophages was extracted from a mouse peritoneal cavity; endogenous in cells; host or cells: primary mouse peritoneal macrophages, pretreated with 500 µM aspirin and stimulated with 10 µg/ml LPS
- Sequence (Q05769 18-604): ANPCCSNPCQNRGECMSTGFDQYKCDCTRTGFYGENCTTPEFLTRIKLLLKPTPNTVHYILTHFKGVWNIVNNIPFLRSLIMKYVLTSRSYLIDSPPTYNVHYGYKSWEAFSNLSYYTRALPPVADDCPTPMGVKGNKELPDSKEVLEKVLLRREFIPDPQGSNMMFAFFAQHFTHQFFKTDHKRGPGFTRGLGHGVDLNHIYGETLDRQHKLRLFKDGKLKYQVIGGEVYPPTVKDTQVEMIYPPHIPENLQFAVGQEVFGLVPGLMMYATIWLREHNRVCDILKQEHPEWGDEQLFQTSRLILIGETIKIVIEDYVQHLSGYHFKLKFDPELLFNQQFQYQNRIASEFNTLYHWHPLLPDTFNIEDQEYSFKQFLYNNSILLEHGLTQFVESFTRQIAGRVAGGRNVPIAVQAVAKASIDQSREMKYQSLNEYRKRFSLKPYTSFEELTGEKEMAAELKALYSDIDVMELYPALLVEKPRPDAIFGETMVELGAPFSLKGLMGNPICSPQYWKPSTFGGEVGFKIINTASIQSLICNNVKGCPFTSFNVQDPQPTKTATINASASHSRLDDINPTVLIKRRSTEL
- Measurement notes: Cyclooxygenase-2 inhibition in aspirin-treated, LPS-stimulated mouse peritoneal macrophages (PGE2 ELISA)
- Format: cell-based
- Test settings: 30 nM; LPS-stimulated mouse peritoneal macrophages
Classify as follows. Reported Inhibitory effects of cyclooxygenase (COX), COX-2 greater than or equal to 30 % inhibition: satisfied. Reported Inhibitory effects of cyclooxygenase (COX), COX-2 below: not satisfied.

Here are 6 compounds together with their reported answers.
- Compound: "O=[N+]([O-])c1ccc2c(ccn2Cc2ccccc2)c1 [Example 2, 1-benzyl-5-nitro-1H-indole]"
  Label class: "not satisfied"
- Compound: "CS(=O)(=O)Nc1ccc2c(ccn2Cc2ccc(F)cc2)c1 [Example 8]"
  Label class: "not satisfied"
- Compound: "CS(=O)(=O)Nc1ccc2c(ccn2Cc2ccccc2)c1 [Example 7]"
  Label class: "satisfied"
- Compound: "COc1ccc(Cn2ccc3cc([N+](=O)[O-])ccc32)cc1 [Example 4, 1-(4-methoxy-benzyl)-5-nitro-1H-indole]"
  Label class: "satisfied"
- Compound: "Nc1ccc2c(ccn2C(=O)c2ccccc2)c1 [Example 6, 1-benzoyl-5-amino-1H-indole]"
  Label class: "satisfied"
- Compound: "O=[N+]([O-])c1ccc2c(ccn2Cc2ccc(F)cc2)c1 [Example 3, 1-(4-fluoro-benzyl)-5-nitro-1H-indole]"
  Label class: "satisfied"

Problem: Assess whether reported Inhibitory effects of cyclooxygenase (COX), COX-2 for CS(=O)(=O)Nc1ccc2c(ccn2C(=O)c2ccccc2)c1 [Example 9] sits at 30 % inhibition or higher.
Result: not satisfied

Problem: Could you verify whether the entry CC(C)c1ccc(Cn2ccc3cc([N+](=O)[O-])ccc32)cc1 [Example 5, 1-(4-isopropyl-benzyl)-5-nitro-1H-indole] shows Inhibitory effects of cyclooxygenase (COX), COX-2 of no less than 30 % inhibition?
Result: satisfied

====

- System: cyclooxygenase-1 (Mus musculus, UniProt P22437)
- Construct: endogenous in cells; host or cells: primary mouse peritoneal macrophages (unstimulated)
- Sequence (P22437 27-602): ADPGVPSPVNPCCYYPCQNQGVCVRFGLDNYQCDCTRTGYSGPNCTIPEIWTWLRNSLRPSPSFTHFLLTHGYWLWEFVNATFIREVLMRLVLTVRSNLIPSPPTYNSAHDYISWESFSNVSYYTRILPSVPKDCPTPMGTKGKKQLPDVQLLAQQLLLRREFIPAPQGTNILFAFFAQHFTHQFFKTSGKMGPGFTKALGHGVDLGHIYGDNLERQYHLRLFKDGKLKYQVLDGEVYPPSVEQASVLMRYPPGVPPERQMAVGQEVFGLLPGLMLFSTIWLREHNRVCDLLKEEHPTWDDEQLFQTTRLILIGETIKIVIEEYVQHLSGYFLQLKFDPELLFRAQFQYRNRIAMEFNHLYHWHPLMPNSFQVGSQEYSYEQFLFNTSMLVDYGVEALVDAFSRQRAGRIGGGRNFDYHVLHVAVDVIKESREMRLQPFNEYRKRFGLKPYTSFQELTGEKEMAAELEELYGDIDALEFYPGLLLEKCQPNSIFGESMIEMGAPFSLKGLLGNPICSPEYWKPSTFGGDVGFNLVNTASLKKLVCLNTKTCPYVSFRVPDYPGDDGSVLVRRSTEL
- Measurement notes: Cyclooxygenase-1 inhibition in mouse peritoneal macrophages (PGE2 ELISA)
- Assay type: cell-based
- Test settings: 10 μM; mouse peritoneal macrophages
Listed here: items and their measured Inhibitory effects of cyclooxygenase (COX), COX-1.
Could you write the number and then its unit?

Some solved entries appear below for comparison.
- Molecule: "O=[N+]([O-])c1ccc2c(ccn2Cc2ccccc2)c1 [Example 2, 1-benzyl-5-nitro-1H-indole]"
  Result: "68.7 % inhibition"
- Molecule: "O=C(c1ccccc1)n1ccc2cc([N+](=O)[O-])ccc21 [Example 1, 1-benzoyl-5-nitro-1H-indole]"
  Result: "40.7 % inhibition"
- Molecule: "CS(=O)(=O)Nc1ccc2c(ccn2C(=O)c2ccccc2)c1 [Example 9]"
  Result: "31.1 % inhibition"
- Molecule: "O=[N+]([O-])c1ccc2c(ccn2Cc2ccc(F)cc2)c1 [Example 3, 1-(4-fluoro-benzyl)-5-nitro-1H-indole]"
  Result: "64.4 % inhibition"
- Molecule: "CC(C)c1ccc(Cn2ccc3cc([N+](=O)[O-])ccc32)cc1 [Example 5, 1-(4-isopropyl-benzyl)-5-nitro-1H-indole]"
  Result: "47.1 % inhibition"
- Molecule: "Nc1ccc2c(ccn2C(=O)c2ccccc2)c1 [Example 6, 1-benzoyl-5-amino-1H-indole]"
  Result: "57.3 % inhibition"
- Molecule: "COc1ccc(Cn2ccc3cc([N+](=O)[O-])ccc32)cc1 [Example 4, 1-(4-methoxy-benzyl)-5-nitro-1H-indole]"
  Result: "71.1 % inhibition"
- Molecule: "CS(=O)(=O)Nc1ccc2c(ccn2Cc2ccc(F)cc2)c1 [Example 8]"
  Result: "32.3 % inhibition"

Consider now this further molecule.
Problem: Lab note: need Inhibitory effects of cyclooxygenase (COX), COX-1 for CS(=O)(=O)Nc1ccc2c(ccn2Cc2ccccc2)c1 [Example 7] on cyclooxygenase-1 (Mus musculus, UniProt P22437), anyone have it?
Result: 44.1 % inhibition
